meta.source: PubChem BioAssay AID1259418

Experiment: inhibitors of Toxoplasma growth in IFN-γ-primed HeLa – cell-based, ME49Luc, luciferase, 72 h, dose response (AID 1259418)
Details: T. gondii ME49Luc in IFN-y HeLa, stronger effect = lower value, -100% = high-dose IFN-γ control wells; at 19.5 µM unless noted
Out of some 3,400 compounds screened, about 840 (25%) were called active. Another 11% or so got no clear call; they are omitted. Not all results are given here. Measured potencies and affinities stand elsewhere.
Could you please report measured max activity for the items listed next?

Worked examples, 3 compounds total:
structure_string: Cc1ccc(C)c(-c2coc(-c3ccc(NC(=O)Nc4ccccc4)cc3)n2)c1
max activity: 17.8% [at 0.16 µM] (inactive)

structure_string: CCOc1ccc(-c2nc(CN3CCN(C(=O)Nc4ccc(C)c(Cl)c4)CC3)c(C)o2)cc1
max activity: 18% [at 0.16 µM] (inactive)

structure_string: CCOc1ccc(-c2nc(CN3CCN(C(=O)Nc4cccc(C)c4)CC3)c(C)o2)cc1
max activity: 6.07% (inactive)

Below is a list of compounds. For each, state its recorded max activity.
1. CCc1ccc(CNc2nc(-c3ccc(OC)cc3)nc3ccccc23)cc1
2. CCOc1ccc(-c2nc(CN3CCN(C(=O)Nc4ccccc4Cl)CC3)c(C)o2)cc1
3. CNc1ncc(CN(C)C(=O)c2csc(C)n2)cn1
4. Cc1ccc(-c2nc(CN3CCN(C(=O)Nc4ccc(C)cc4Cl)CC3)c(C)o2)cc1

Response line:
-7.47% [at 0.16 µM] (inactive)
227% (inactive)
20.8% (inactive)
13.8% [at 2.6 µM] (inactive)

----------
Could you please report measured max activity for the items listed next?
Experiment: inhibitors of Toxoplasma growth in IFN-γ-primed HeLa – cell-based, ME49Luc, luciferase, 72 h, dose response (AID 1259418)
Conditions: T. gondii ME49Luc in IFN-y HeLa, stronger effect = lower value, -100% = high-dose IFN-γ control wells; at 19.5 µM unless noted
About 840 (25%) of roughly 3,400 compounds were called active. Another 11% or so got no clear call; they are omitted. The list is a sample of the results. Entries with a potency or affinity are not part of this list.

Worked examples, 3 molecules total:
molecule: CCOC(=O)CSC1=Nc2ccccc2C2=NC(CC(=O)NCc3ccccc3OC)C(=O)N12 (stereo unspecified)
result: -7.6% [at 0.68 µM] (inactive)

molecule: O=C(Nc1ccc(-c2nc(-c3ccccc3)co2)cc1)c1ccc2c(c1)OCO2
result: 22.1% [at 0.35 µM] (inactive)

molecule: COc1ccc(CCNc2nc(SCc3ccc(F)cc3)nc3ccccc23)cc1OC
result: -14.5% [at 5 µM] (inactive)

Below is a list of molecules. For each, state its recorded max activity.
1. Cc1nc(OCC(=O)NCc2ccccc2)c2ccccc2n1
2. CCOc1ccc(NC(=O)Nc2ccc(-c3nc(-c4ccccc4)co3)cc2)cc1
3. CN(C)CC(=O)N1C[C@@H]2N[C@H](C1)C2c1ccc(-c2ccccc2F)cc1 (stereo partly specified)
4. Cn1cccc1C(=O)Nc1ccc2c(c1)CCC(=O)N2
5. COc1ccc(C)cc1NC(=O)N1CCc2nc(-c3ccc(C)cc3)sc2C1
6. CCc1c(C)sc2c1CCN(Cc1nc(-c3ccc(OC)cc3)oc1C)C2c1ccccc1 (stereo unspecified)
7. Cn1c(=O)c(C(=O)Nc2ccccc2)cc2cccnc21
8. Clc1ccc(-c2nc(NCc3cccs3)c3ccccc3n2)cc1

Response line:
1. 19.6% [at 0.16 µM] (inactive)
2. 55.1% (inactive)
3. 5.96% [at 10 µM] (inactive)
4. 85.5% (inactive)
5. -14.6% [at 0.16 µM] (inactive)
6. 15.1% [at 5 µM] (inactive)
7. 14.2% [at 2.6 µM] (inactive)
8. 13.5% [at 0.35 µM] (inactive)

----------
Experiment: inhibitors of Toxoplasma growth in IFN-γ-primed HeLa – cell-based, ME49Luc, luciferase, 72 h, dose response (AID 1259418)
Conditions: T. gondii ME49Luc in IFN-y HeLa, stronger effect = lower value, -100% = high-dose IFN-γ control wells; at 19.5 µM unless noted
About 840 (25%) of roughly 3,400 compounds were called active. About 11% were inconclusive and are not listed. A selection follows. Potency and affinity values are given separately.
readout: max activity

Worked examples, 5 molecules total:
molecule: COC(=O)c1ccc(NC(=O)Nc2ccc(-c3nc(-c4cc(C)ccc4C)co3)cc2)cc1
result: -6.97% [at 0.68 µM] (inactive)
--
molecule: CCCNC(=O)N1[C@H](C#N)[C@@H](c2ccc(-c3ccccc3F)cc2)[C@H]1CO
result: -20.5% [at 0.6 µM] (inactive)
--
molecule: CCC(C(=O)N1CCC2(CC1)Nc1ccc(C)c(C)c1-n1cccc12)c1ccccc1 (stereo not given)
result: 8.62% [at 2.6 µM] (inactive)
--
molecule: CCS(=O)(=O)N1CC[C@H]2[C@@H]1CCN2Cc1cnn(C)c1
result: 27.1% (inactive)
--
molecule: COc1ccc(-c2nc(N(C)C3CCCCC3)c3ccccc3n2)cc1
result: 11.7% (inactive)

Below is a list of molecules. For each, state its recorded max activity.
1. Cc1cccc(CNC2=NCCNC23CCN(S(=O)(=O)c2cccs2)CC3)c1
2. CCCNC(=O)N1[C@H](C#N)[C@H](c2ccc(-c3ccccc3F)cc2)[C@H]1CO
3. O=S(=O)(c1cccs1)N1CCC2(CC1)NCCN=C2NCc1cc(F)cc(F)c1
4. O=C(Nc1c(C(=O)N2CCCC2)[nH]c2ccccc12)c1ccc(Cl)cc1
5. O=S(=O)(c1cccs1)N1CCC2(CC1)NCCN=C2NCc1ccc(F)c(Cl)c1

Response line:
["13.8% (inactive)", "-14.6% (inactive)", "10.2% [at 0.16 µM] (inactive)", "30.4% [at 10 µM] (inactive)", "-41.7% (inactive)"]

----------
Could you please report measured max activity for the items listed next?
Test: inhibitors of Toxoplasma growth in IFN-γ-primed HeLa – cell-based, ME49Luc, luciferase, 72 h, dose response (AID 1259418)
Details: T. gondii ME49Luc in IFN-y HeLa, stronger effect = lower value, -100% = high-dose IFN-γ control wells; at 19.5 µM unless noted
Screen size: about 3,400 compounds; about 840 (25%) were called active. Roughly 11% stayed inconclusive and do not appear here. Not all results are given here. Results with a measured potency or affinity are listed apart.

Below is a list of molecules. For each, state its recorded max activity.
1. Cc1ccc2c(c1C)-n1cccc1C1(CCN(C(=O)COc3ccc(Cl)cc3)CC1)N2
2. COc1ccccc1CNC(=O)CCC1N=C2c3ccccc3N=C(SCC#N)N2C1=O (stereo not given)
3. O=C(C1CCCCC1)N1[C@H](CO)[C@@H]2c3ccccc3N(S(=O)(=O)c3ccccc3)C[C@@H]21

Response line:
["-7.41% [at 1.35 µM] (inactive)", "14.4% [at 1.35 µM] (inactive)", "26.4% (inactive)"]

----------
Could you please report measured max activity for the items listed next?
Experiment: inhibitors of Toxoplasma growth in IFN-γ-primed HeLa – cell-based, ME49Luc, luciferase, 72 h, dose response (AID 1259418)
Details: T. gondii ME49Luc in IFN-y HeLa, stronger effect = lower value, -100% = high-dose IFN-γ control wells; at 19.5 µM unless noted
Screen size: about 3,400 compounds; about 840 (25%) were called active. Inconclusive results (about 11%) are left out. Not all results are given here. Potency and affinity values are given separately.

molecule: CCC(C(=O)N1CSC[C@@H]1C(=O)NCCc1csc(-c2ccccc2)n1)c1ccccc1 (stereo not given in full)
result: 16.6% [at 5 µM] (inactive)

Below is a list of molecules. For each, state its recorded max activity.
1. Cc1cccc(CN2CCC(CNc3nc(-c4ccc(Cl)cc4)nc4ccccc34)CC2)c1
2. O=C(NCCc1csc(-c2ccccc2)n1)C1CCN(S(=O)(=O)c2cccs2)CC1
3. COc1ccc(-c2nc3c(s2)CN(C(=O)Nc2cc(C)ccc2C)CC3)cc1
4. COc1ccc(-c2nc(NCC3CCN(Cc4ccc(Cl)cc4)CC3)c3ccccc3n2)cc1
5. COc1ccc(-c2nc(NCc3ccc(C)cc3)c3ccccc3n2)cc1
6. Cc1ccc(NC(=O)COc2nc(C)nc3ccccc23)c(Cl)c1
7. Cc1nc(CCNC(=O)C2CCN(S(=O)(=O)c3ccc(CC(C)C)cc3)CC2)cs1
8. COc1ccc(-c2nc(NCC3CCN(Cc4ccccc4F)CC3)c3ccccc3n2)cc1

Response line:
-45.1% [at 0.35 µM] (inactive)
11.2% [at 0.16 µM] (inactive)
75% (inactive)
14.4% [at 2.6 µM] (inactive)
-20.6% [at 5 µM] (inactive)
15.5% [at 0.68 µM] (inactive)
-7.19% [at 1.35 µM] (inactive)
-29.4% (inactive)

Prompt line: Would you kindly share the measured max activity for `COc1ccc(-c2nc(NCc3ccc(F)cc3)c3ccccc3n2)cc1` ?
Response line: 18.6% [at 1.35 µM] (inactive)
